- SUBJECT_OF_TEST: T1, mouse PD-L1 protein (G&P Biosciences, cat #FCL3502B) (mouse, UniProt Q9EP73 19-239, limits assumed)
- T1 construct: Bought protein; construct not described; also called mPD-L1 protein
- ASSAY_TEXT: ELISA, blocking of mouse PD-1 binding to coated mouse PD-L1 protein
No end group written: not given here.
EXPERIMENTAL_READOUT: IC50 (µM)

INSERT INTO assay_data (binder, experimental_readout, obs_value) VALUES
  ('HYPFRPHANQAS (not fully specified, 12-mer from phage display) [CLP001 peptide]', 'IC50', 2.43),
  ('DYHDPSLPTLRK (not fully specified, 12-mer from phage display) [CLP004 peptide]', 'IC50', 1.91),
  ('WHRSYYTWNLNT (not fully specified, 12-mer from phage display) [CLP002 peptide]', 'IC50', 1.91),
  ('WHFSYNWRWLPP (not fully specified, 12-mer from phage display) [CLP003 peptide]', 'IC50', 2.26);
